systemName: PTP ALPHA (Homo sapiens)
Construct: RTPα intracellular domain construct was obtained
assayOverview: PTP IC50 assay, pNPP or FDP as substrate
assaySetup: 25° C.
pIC50: −log10 of the molar value.
Form field: pIC50 (one value per entry).
outcomeMeasure: pIC50

[
  {
    "lineNotation": "Cc1cc(NS(=O)(=O)C(F)(F)F)ccc1CCc1ccc(NS(=O)(=O)C(F)(F)F)cc1C",
    "cmp": "=",
    "reportedMeasurement": 4.27
  },
  {
    "lineNotation": "CC(C)(COc1ccc(NS(=O)(=O)C(F)(F)F)cc1)COc1ccc(NS(=O)(=O)C(F)(F)F)cc1",
    "cmp": "=",
    "reportedMeasurement": 4.57
  },
  {
    "lineNotation": "CCNc1ccc(S(=O)(=O)C(F)(F)F)cc1NC(=O)Cc1ccc(S(C)(=O)=O)cc1",
    "cmp": "<",
    "reportedMeasurement": 4.00
  },
  {
    "lineNotation": "O=C(O)c1cc(Oc2ccc(S(=O)(=O)C(F)(F)F)cc2)cc(Oc2ccc(S(=O)(=O)C(F)(F)F)cc2)c1",
    "cmp": "=",
    "reportedMeasurement": 5.22
  },
  {
    "lineNotation": "O=C(O)Cc1ccccc1CC(=O)Nc1cccc(S(=O)(=O)C(F)(F)F)c1",
    "cmp": "<",
    "reportedMeasurement": 4.00
  },
  {
    "lineNotation": "CCOC(=O)COc1ccc(S(=O)(=O)c2ccc(Oc3ccc(S(=O)(=O)C(F)(F)F)cc3)cc2)cc1",
    "cmp": "<",
    "reportedMeasurement": 4.00
  },
  {
    "lineNotation": "CCOC(=O)c1cc(Oc2ccc(S(=O)(=O)C(F)(F)F)cc2[N+](=O)[O-])c(C(=O)OCC)cc1O",
    "cmp": "<",
    "reportedMeasurement": 4.00
  }
]

----------
systemName: PTP EPSILON (Homo sapiens, UniProt P23469)
Construct: made in house; host or cells: Sf-9 insect cells (pFastBac-G2T); a pGEX 6P-1 construct also existed
Sequence (P23469 80-393 limits assumed): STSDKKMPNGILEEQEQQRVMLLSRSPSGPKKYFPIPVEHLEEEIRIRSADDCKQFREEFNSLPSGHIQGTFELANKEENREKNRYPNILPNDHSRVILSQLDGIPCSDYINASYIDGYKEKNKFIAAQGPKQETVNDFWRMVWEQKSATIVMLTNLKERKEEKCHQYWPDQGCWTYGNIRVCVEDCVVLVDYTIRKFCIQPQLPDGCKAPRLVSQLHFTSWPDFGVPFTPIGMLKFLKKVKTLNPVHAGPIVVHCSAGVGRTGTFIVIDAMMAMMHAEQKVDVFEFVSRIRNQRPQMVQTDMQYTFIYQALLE
assayOverview: PTP IC50 assay, pNPP or FDP as substrate
Type: biochemical
assaySetup: comparison of R groups; read-out: IC50 Epsilon

[
  {
    "lineNotation": "CS(=O)(=O)Nc1ccc(Oc2ccc(Oc3ccc(NS(C)(=O)=O)cc3)cc2)cc1",
    "cmp": "=",
    "IC50 [µM]": 51.4
  },
  {
    "lineNotation": "Nc1ccc(Oc2ccc(Oc3ccc(N)cc3)cc2)cc1",
    "cmp": ">",
    "IC50 [µM]": 100
  },
  {
    "lineNotation": "O=S(=O)(Nc1ccc(Oc2ccc(Oc3ccc(NS(=O)(=O)C(F)(F)F)cc3)cc2)cc1)C(F)(F)F",
    "cmp": "=",
    "IC50 [µM]": 16.9
  }
]

----------
systemName: PTP SHP2 (Homo sapiens, UniProt Q06124)
Construct: The catalytic domain was amplified using the following oligonucleotides; made in house; host or cells: Sf-9 insect cells (pFastBac-G2T)
Sequence (Q06124 247-517 limits assumed): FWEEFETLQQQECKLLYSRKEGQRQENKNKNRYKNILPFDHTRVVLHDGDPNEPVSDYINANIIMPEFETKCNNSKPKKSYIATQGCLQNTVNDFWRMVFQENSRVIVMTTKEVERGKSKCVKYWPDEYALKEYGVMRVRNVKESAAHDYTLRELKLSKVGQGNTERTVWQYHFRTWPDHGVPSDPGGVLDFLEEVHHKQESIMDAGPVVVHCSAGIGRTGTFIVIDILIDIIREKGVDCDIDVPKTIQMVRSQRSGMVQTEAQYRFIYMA
assayOverview: PTP IC50 assay, fluorescent substrate DiFMUP
Format: biochemical
assaySetup: DiFMUP as substrate, 25° C.; read-out: PTP IC50 SHP2
outcomeMeasure: log10 IC50 (log10 of the value in µM)

[
  {
    "compound": "O=C(O)c1ccc2cc(NS(=O)(=O)C(F)(F)F)ccc2c1",
    "reportedMeasurement": 1.81
  },
  {
    "compound": "CCOC(=O)c1cc2cc(NS(=O)(=O)C(F)(F)F)ccc2n1CC1CCCCC1",
    "reportedMeasurement": 0.53
  },
  {
    "compound": "CCCCN(C(=O)c1ccccc1)C(C(=O)NCC(=O)OC)c1ccc(S(=O)(=O)C(F)(F)F)cc1 (centres unmarked)",
    "reportedMeasurement": 1.87
  },
  {
    "compound": "O=C(O)c1ccc(OCCOc2ccc(S(=O)(=O)C(F)(F)F)cc2[N+](=O)[O-])cc1",
    "reportedMeasurement": 0.18
  },
  {
    "compound": "CN(Cc1ccc2cc(C(=O)O)ccc2c1)S(=O)(=O)C(F)(F)F",
    "reportedMeasurement": 1.68
  },
  {
    "compound": "O=[N+]([O-])c1ccc(NCC(O)COc2ccc(S(=O)(=O)C(F)(F)F)cc2[N+](=O)[O-])cc1 (centres unmarked)",
    "reportedMeasurement": 0.68
  },
  {
    "compound": "Cc1cc2cc(NS(=O)(=O)C(F)(F)F)ccc2n1CC(=O)NCc1ccc(C(=O)O)cc1",
    "reportedMeasurement": 1.99
  },
  {
    "compound": "O=[N+]([O-])c1cc(S(=O)(=O)C(F)(F)F)ccc1OCC(CN1CCOCC1)Oc1ccc(S(=O)(=O)C(F)(F)F)cc1[N+](=O)[O-] (centres unmarked)",
    "reportedMeasurement": 0.46
  }
]

----------
Form field: IC50 (one value per entry).
systemName: PTP SIGMA (Homo sapiens, UniProt Q13332)
Construct: made in house; host or cells: E. coli BL-21 (pGEX 6P-1)
Sequence (Q13332 1320-1660 limits assumed): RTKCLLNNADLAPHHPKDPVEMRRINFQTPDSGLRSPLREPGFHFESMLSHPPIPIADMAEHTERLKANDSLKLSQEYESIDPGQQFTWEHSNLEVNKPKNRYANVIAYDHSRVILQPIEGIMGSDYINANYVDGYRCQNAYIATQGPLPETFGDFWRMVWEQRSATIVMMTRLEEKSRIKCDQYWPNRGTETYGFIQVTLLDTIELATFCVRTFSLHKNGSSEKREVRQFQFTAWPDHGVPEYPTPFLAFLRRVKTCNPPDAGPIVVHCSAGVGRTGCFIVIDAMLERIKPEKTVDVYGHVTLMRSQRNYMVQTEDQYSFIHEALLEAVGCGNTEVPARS
assayOverview: PTP IC50 assay, pNPP or FDP as substrate
Format: biochemical
assaySetup: pNPP or FDP as substrate, 25° C.; read-out: PTP IC50 Sigma

[
  {
    "lineNotation": "O=[N+]([O-])c1cc(S(=O)(=O)C(F)(F)F)ccc1Oc1cc(CN2CCOCC2)c(Oc2ccc(S(=O)(=O)C(F)(F)F)cc2[N+](=O)[O-])cc1CN1CCOCC1",
    "IC50": "8.5 µM"
  },
  {
    "lineNotation": "O=S(=O)(Nc1ccc(Oc2ccc(NS(=O)(=O)C(F)(F)F)cc2)cc1)C(F)(F)F",
    "IC50": "> 100 µM"
  },
  {
    "lineNotation": "O=S(=O)(c1ccc(COCc2ccc(S(=O)(=O)C(F)(F)F)cc2)cc1)C(F)(F)F",
    "IC50": "> 100 µM"
  },
  {
    "lineNotation": "O=C(O)c1cc(Oc2ccc(S(=O)(=O)C(F)(F)F)cc2)cc(Oc2ccc(S(=O)(=O)C(F)(F)F)cc2)c1",
    "IC50": "7.7 µM"
  },
  {
    "lineNotation": "CC(C)(c1ccc(NS(=O)(=O)C(F)(F)F)cc1)c1ccc(C(C)(C)c2ccc(NS(=O)(=O)C(F)(F)F)cc2)cc1",
    "IC50": "20 µM"
  },
  {
    "lineNotation": "O=S(=O)(Nc1ccc(-c2nnc(-c3ccc(NS(=O)(=O)C(F)(F)F)cc3)o2)cc1)C(F)(F)F",
    "IC50": "13.2 µM"
  },
  {
    "lineNotation": "Cc1cc(NS(=O)(=O)C(F)(F)F)ccc1CCc1ccc(NS(=O)(=O)C(F)(F)F)cc1C",
    "IC50": "41.4 µM"
  }
]

----------
systemName: PTP EPSILON (Homo sapiens, UniProt P23469)
Construct: made in house; host or cells: Sf-9 insect cells (pFastBac-G2T); a pGEX 6P-1 construct also existed
assayOverview: PTP IC50 assay, pNPP or FDP as substrate
Format: biochemical
assaySetup: pNPP or FDP as substrate, 25° C.; read-out: PTP IC50 Epilson
outcomeMeasure: IC50 (µM)

[
  {
    "lineNotation": "O=S(=O)(Nc1ccc(CCc2ccc(NS(=O)(=O)C(F)(F)F)cc2)cc1)C(F)(F)F",
    "measurementUnits": "µM",
    "cmp": ">",
    "reportedMeasurement": 100
  },
  {
    "lineNotation": "CCOC(=O)COc1ccc(S(=O)(=O)c2ccc(Oc3ccc(S(=O)(=O)C(F)(F)F)cc3[N+](=O)[O-])cc2)cc1",
    "measurementUnits": "µM",
    "cmp": ">",
    "reportedMeasurement": 100
  },
  {
    "lineNotation": "O=[N+]([O-])c1cc(S(=O)(=O)C(F)(F)F)ccc1Oc1cc(CN2CCOCC2)c(Oc2ccc(S(=O)(=O)C(F)(F)F)cc2[N+](=O)[O-])cc1CN1CCOCC1",
    "measurementUnits": "µM",
    "cmp": "=",
    "reportedMeasurement": 2.2
  },
  {
    "lineNotation": "O=C(NCc1ccc(S(=O)(=O)C(F)(F)F)cc1)c1ccc(S(=O)(=O)C(F)(F)F)cc1",
    "measurementUnits": "µM",
    "cmp": "=",
    "reportedMeasurement": 38.6
  }
]

----------
systemName: PTP SIGMA (Homo sapiens)
Construct: made in house; host or cells: E. coli BL-21 (pGEX 6P-1)
assayOverview: PTP IC50 assay, pNPP or FDP as substrate
Format: biochemical
assaySetup: PTP IC50 Sigma, pNPP or FDP as substrate, 25° C.
outcomeMeasure: IC50 (µM)

[
  {
    "lineNotation": "NC(=O)c1cc(Oc2ccc(S(=O)(=O)C(F)(F)F)cc2[N+](=O)[O-])cc(Oc2ccc(S(=O)(=O)C(F)(F)F)cc2[N+](=O)[O-])c1",
    "outcomeMeasure": "IC50",
    "measurementUnits": "µM",
    "reportedMeasurement": 26.5
  }
]
